tested on: Staphylococcus epidermidis; assay: Antibacterial activity against Staphylococcus epidermidis ATCC 12228 assessed as inhibition of bacterial growth incubated for 18 hrs by microbroth dilution assay; format: functional
Where a SMILES comes first, the peptide text is derived from it. [ ]: non-standard residue; d: D form.
Examples of compounds with documented MIC follow.
RESULT TYPE: MIC (µM)

COMPOUND	ASSAYED TARGET	RESULT TYPE	COMPARISON OPERATOR	RESULT VALUE
N=C(N)NCCC[C@H](NC(=O)[C@H](Cc1ccccc1)NC(=O)[C@H](CCCNC(=N)N)NC(=O)[C@H](Cc1ccccc1)NC(=O)[C@H](CCCNC(=N)N)NC(=O)CNC(=O)[C@H]1CCCN1C(=O)[C@H](CCCNC(=N)N)NC(=O)[C@H](Cc1ccccc1)NC(=O)[C@H](CCCNC(=N)N)NC(=O)[C@H](Cc1ccccc1)NC(=O)[C@@H](N)CCCNC(=N)N)C(N)=O	Staphylococcus epidermidis	MIC	=	4
NCCCC[C@H](NC(=O)CNC(=O)[C@H]1CCCN1C(=O)[C@H](CCCCN)NC(=O)[C@H](Cc1c[nH]c2ccccc12)NC(=O)[C@H](CCCCN)NC(=O)[C@@H](N)Cc1c[nH]c2ccccc12)C(=O)N[C@@H](Cc1c[nH]c2ccccc12)C(=O)N[C@@H](CCCCN)C(=O)N[C@@H](Cc1c[nH]c2ccccc12)C(N)=O (H-WKWK[dP]GKWKW-NH2)	Staphylococcus epidermidis	MIC	=	8
CO[C@H]1/C=C/O[C@@]2(C)Oc3c(C)c(O)c4c(O)c(c(/C=N/N5CCN(C)CC5)c(O)c4c3C2=O)NC(=O)/C(C)=C\C=C\[C@H](C)[C@H](O)[C@@H](C)[C@@H](O)[C@@H](C)[C@H](OC(C)=O)[C@@H]1C	Staphylococcus epidermidis	MIC	<	1
